ASSAYED TARGET: L-lactate dehydrogenase (Plasmodium falciparum (isolate CDC / Honduras))
PROTOCOL SUMMARY: PfLDH activity inhibition – cell lysate, 3D7 strain, counter-screen for P. falciparum growth inhibition project (AID 2304);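 further: 0% = vehicle and 100% = reference inhibitor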
CONDITION LABEL: P. falciparum 3D7 crude extract, LDH APAD/NBT absorbance; at 2 µM; hits give high values
VALUE KIND: inhibition (%)
Answer with a number only, understood to be in %.

Cc1[nH]c2cc(Cl)ccc2c1C1=CCN(CCCCC2(C)C(=O)Nc3ccccc32)CC1 (centres undefined) | 0

Tell me the measured inhibition of O=C(NC1CCC(CN2CCC(c3c[nH]c4ccccc34)CC2)CC1)c1cc2cccc([N+](=O)[O-])c2[nH]1 (centres undefined) , please.
-1

Could you tell me which inhibition is on file for "COc1ccc(N(c2nc(-c3cc(Cl)ccc3Cl)cs2)C2CCNCC2)cc1" ?
-2

inhibition lookup needed for CNC(=O)c1ccc2[nH]cc(C3CCN(CC4CCC(NC(=O)/C=C/c5ccc(Cl)c(Cl)c5)CC4)CC3)c2c1 (centres undefined) , thanks.
-7

Report inhibition for O=C(NC1CCC(CN2CCC(c3c[nH]c4ccccc34)CC2)CC1)c1csc(-c2ccc(C(F)(F)F)cc2Cl)n1 (centres undefined) please.
-3

Look up inhibition: CC(Cc1ccc(OC2CCCCC2)cc1)NCC(O)c1cccc(Cl)c1 (centres undefined)
-4

What value of inhibition has been recorded for this entry: "CCOC(=O)c1c(CN2CCN(C)CC2)n(Cc2ccccc2)c2cc(Br)c(O)cc12"
-5

# input compound: CNCC(O)c1cc(Cl)c(Cl)cc1C (centres undefined) ; wanted: its inhibition
2

State the recorded inhibition for this entry: CC[C@H]1CN2CC[C@H]1C[C@H]2[C@H](O)c1cc(N2CCCC(CO)C2)nc2ccc(OC)cc12 (some centres undefined)
2

I am curious: what inhibition value has been reported for "CNCCN(C)C(=O)Oc1c(Br)c(C)nc(C)c1-c1ccc(Oc2ccc(OC(F)(F)F)cc2)cc1" ?
2

Form field: reported inhibition of "CC[C@H]1CN2CC[C@H]1C[C@H]2[C@H](O)c1cc(-c2ccc(C)cc2)nc2ccc(OC)cc12"
6

# lookup: inhibition of "CC(C)CNCc1ccc(-c2cccc(CN(C(=O)Nc3ccccc3)C3CCN(Cc4ccccc4)CC3)c2)cc1"
4

Look up inhibition: CC(Cc1ccc(C2=CCNCC2)cc1)NCC(O)c1cccc(C(F)(F)F)c1 (centres undefined)
0

What does the record list as inhibition for "COC(=O)c1ccc(C[C@@H](C)NC[C@H](O)c2cccc(OCc3ccccc3)c2)cc1" ?
1

For the compound shown here, "O=C(C=Cc1ccc(F)c(Br)c1)N1CCC(CN2CCC(c3c[nH]c4ccccc34)CC2)CC1" , give the reported inhibition.
-3

Need inhibition, item "CC[C@H]1CN2CC[C@H]1C[C@H]2[C@H](O)c1cc(-c2ccc3ccccc3c2)nc2ccc(OC)cc12"
-3

Name the reported inhibition value associated with the compound "CN1CC=C(c2csc3ccc(NC(=O)Nc4ccc(-c5ccncc5)c(Cl)c4)cc23)CC1"
6

Field request: inhibition | item: "CC[C@H]1CN2CC[C@@H]1C[C@H]2[C@H](O)c1ccnc2ccc(OC)cc12"
-4

inhibition lookup needed for CCC(C)CN1CCC(N(C)c2cc(NC(=O)c3cccc(C)c3)ccn2)CC1 (centres undefined) , thanks.
1
